Test: Plasma pharmacokinetics of TRA, ponatinib and metabolites after a single oral 45-mg [14C]ponatinib dose
Conditions: male, human, plasma, oral, 45 mg
quantity: concentration at 144 h

Some entries whose results are on file:
Cc1ccc(C(=O)O)cc1C#Cc1cnc2cccnn12 [M14] = < 2.4 nM
Cc1ccc(C(=O)Nc2ccc(C(=O)O)c(C(F)(F)F)c2)cc1C#Cc1cnc2cccnn12 [M23] = < 3 nM
Cc1ccc(C(=O)Nc2ccc(CN3CCN(C)CC3)c(C(F)(F)F)c2)cc1C#Cc1cnc2cccnn12.Cl [Ponatinib] = < 2.4 nM

For the next question, use this molecule.
Incoming: Any idea what its concentration at 144 h is? The molecule is Cc1ccc(C(=O)Nc2ccc(CN3CCNCC3)c(C(F)(F)F)c2)cc1C#Cc1cnc2cccnn12 [M42]
Outgoing: < 0.2 nM

* * *

Test: Plasma pharmacokinetics of TRA, ponatinib and metabolites after a single oral 45-mg [14C]ponatinib dose
Conditions: male, human, plasma, po, 45 mg
quantity: Tmax (h)
Write down the numeric answer in h and omit the unit.

Cc1ccc(C(=O)Nc2ccc(CN3CCNCC3)c(C(F)(F)F)c2)cc1C#Cc1cnc2cccnn12 [M42] = 2

Could you now consider this next compound?
Incoming: Tmax for Cc1ccc(C(=O)O)cc1C#Cc1cnc2cccnn12 [M14] ?
Outgoing: 5

* * *

Assay: Metabolite profiling of plasma (HPLC-radiochromatography)
Format: in vivo, human
Conditions: 12 h pooled plasma, % of TRA
molecules and their reported % Distribution in plasma

Record excerpt, results attached:
Cc1ccc(C(=O)Nc2ccc(C(=O)O)c(C(F)(F)F)c2)cc1C#Cc1cnc2cccnn12 = 2.4%
Cc1ccc(C(=O)Nc2ccc(CN3CC[N+](C)([O-])CC3)c(C(F)(F)F)c2)cc1C#Cc1cnc2cccnn12 = ~0.5–1.0%

Incoming: Entry under review: "Cc1ccc(C(=O)Nc2ccc(CN3CCNCC3)c(C(F)(F)F)c2)cc1C#Cc1cnc2cccnn12" . Reported % Distribution in plasma?
Outgoing: ~0.5–1.0%

Incoming: Need % Distribution in plasma, item "Cc1ccc(C(=O)O)cc1C#Cc1cnc2cccnn12"
Outgoing: 12.8%

Incoming: Which % Distribution in plasma value is on record for "Cc1ccc(C(=O)Nc2ccc(CN3CCN(C)CC3)c(C(F)(F)F)c2)cc1C#Cc1cnc2cccnn12.Cl" ?
Outgoing: 51.5%

* * *

Assay: Metabolite characterization by LC/MS/MS in human plasma, urine, and feces
Conditions: human plasma, urine, feces; LC/MS/MS
quantity: Matrix (in which the metabolite was found)

Some solved entries appear below for comparison.
Cc1ccc(C(=O)Nc2ccc(CN3CCN(C)CC3)c(C(F)(F)F)c2)cc1C#Cc1cnc2cccnn12.Cl = P, U, F
Cc1ccc(C(=O)O)cc1C#Cc1cnc2cccnn12 = P, U
Cc1ccc(C(=O)Nc2ccc(CN3CCNCC3)c(C(F)(F)F)c2)cc1C#Cc1cnc2cccnn12 = P, U, F
Cc1ccc(C(=O)Nc2ccc(C(=O)O)c(C(F)(F)F)c2)cc1C#Cc1cnc2cccnn12 = P, U, F

Continue with the next molecule.
Incoming: Fill in: Matrix (in which the metabolite was found) of "Cc1ccc(C(=O)Nc2ccc(CN3CC[N+](C)([O-])CC3)c(C(F)(F)F)c2)cc1C#Cc1cnc2cccnn12" is ___
Outgoing: P, U, F

* * *

// % Distribution in plasma lookup, one value per entry
Assay: Metabolite profiling of plasma (HPLC-radiochromatography)
Format: in vivo, human
Conditions: 5 h pooled plasma, % of TRA

Cc1ccc(C(=O)Nc2ccc(CN3CC[N+](C)([O-])CC3)c(C(F)(F)F)c2)cc1C#Cc1cnc2cccnn12 [M36] = ~0.5%

Incoming: Requested field: % Distribution in plasma. Item: Cc1ccc(C(=O)Nc2ccc(CN3CCNCC3)c(C(F)(F)F)c2)cc1C#Cc1cnc2cccnn12 [M42]
Outgoing: ~0.5–1.0%

Origin of measurements: paper PMC5344956
